Numbers sourced from patent US6858210B1.

# measured on: affinity purified β2GPI-dependent antiphospholipid antibody
# assay remarks: Competitive inhibition ELISA: recombinant β2GPI proteins compete for antibody binding to coated full length recombinant β2GPI
# Set-up: species or system human
# condition parameters: Ab 6509; read-out: 50% (concentration to give 50% inhibition)
Collected IC50 values appear next to each entry.

Please review the entries below; each comes with its answer.
molecule: ---45: recombinant β2GPI deletion mutant with domains 4, 5 (protein) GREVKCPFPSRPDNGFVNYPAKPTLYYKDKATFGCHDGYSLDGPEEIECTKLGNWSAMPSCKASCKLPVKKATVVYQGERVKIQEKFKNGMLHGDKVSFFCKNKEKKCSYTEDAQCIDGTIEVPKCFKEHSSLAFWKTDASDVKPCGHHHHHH
IC50: > 5 µM

molecule: recombinant β2GPI domain 5 with GlyHis6 (----5) (protein) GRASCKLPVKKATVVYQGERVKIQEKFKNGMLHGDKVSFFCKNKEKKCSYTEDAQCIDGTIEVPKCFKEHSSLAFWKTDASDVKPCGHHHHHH
IC50: > 47 µM

Would you kindly look at the next entry?
Reported IC50 ( -2345: recombinant β2GPI deletion mutant with domains 2-5 (protein) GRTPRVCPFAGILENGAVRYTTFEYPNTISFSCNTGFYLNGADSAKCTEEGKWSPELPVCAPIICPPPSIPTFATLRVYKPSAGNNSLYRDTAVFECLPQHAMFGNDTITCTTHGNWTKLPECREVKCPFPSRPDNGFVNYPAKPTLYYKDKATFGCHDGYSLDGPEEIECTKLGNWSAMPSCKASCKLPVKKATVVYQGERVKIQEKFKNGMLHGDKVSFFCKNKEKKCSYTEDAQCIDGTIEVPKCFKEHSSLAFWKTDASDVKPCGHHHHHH ) = > 16 µM
